# testDescription: Elimination half life in ICR mouse at 20 mg/kg, po by UPLC-MS/MS analysis
# Format: ADME, organism-based
# setupConditions: in vivo, read-out: beta t1/2 (converted)
measuredAttribute: half-life (h)
Supply the numeric figure in h, leaving out any unit text.

// field: half-life; key: C[C@@H]1O[C@H]2O[C@H]3[C@@H](OC[C@H](O)[C@@H]3O)OC(=O)[C@]34CCC(C)(C)C[C@H]3C3=CC[C@@H]5[C@@]6(C)C[C@H](O)[C@H](O[C@@H]7O[C@H](CO)[C@@H](O)[C@H](O)[C@H]7O[C@@H]7OC[C@H](OC(=O)C[C@](C)(O)CC(=O)O[C@@H]1[C@@H](O[C@@H]1OC[C@@H](O)[C@H](O)[C@H]1O)[C@H]2O)[C@H](O)[C@H]7O)[C@@](C)(CO)[C@@H]6CC[C@@]5(C)[C@]3(C)CC4 ; value = 2.3

* * *

# testDescription: Toxicity in ip dosed ICR mouse
# Assay type: organism-based
# setupConditions: in vivo
measuredAttribute: LD50 (mg/kg)
The figure you give is taken to be in mg/kg; do not add the unit.

What the record says about C[C@@H]1O[C@H]2O[C@H]3[C@@H](OC[C@H](O)[C@@H]3O)OC(=O)[C@]34CCC(C)(C)C[C@H]3C3=CC[C@@H]5[C@@]6(C)C[C@H](O)[C@H](O[C@@H]7O[C@H](CO)[C@@H](O)[C@H](O)[C@H]7O[C@@H]7OC[C@H](OC(=O)C[C@](C)(O)CC(=O)O[C@@H]1[C@@H](O[C@@H]1OC[C@@H](O)[C@H](O)[C@H]1O)[C@H]2O)[C@H](O)[C@H]7O)[C@@](C)(CO)[C@@H]6CC[C@@]5(C)[C@]3(C)CC4 : LD50 is 18.7

response.value for C[C@@H]1O[C@H]2O[C@H]3[C@@H](OC[C@H](O)[C@@H]3O)OC(=O)[C@]34CCC(C)(C)C[C@H]3C3=CC[C@@H]5[C@@]6(C)C[C@H](O)[C@H](O[C@@H]7O[C@H](CO)[C@@H](O)[C@H](O)[C@H]7O[C@@H]7OC[C@H](OC(=O)C[C@](C)(O)CC(=O)O[C@@H]1[C@@H](O[C@@H]1OC[C@@H](O)[C@H](O)[C@H]1O)[C@H]2O)[C@H](O)[C@H]7O)[C@@](C)(CO)[C@@H]6CC[C@@]5(C)[C@]3(C)C[C@H]4O (field: LD50) = 21

Memo: C[C@@H]1O[C@H]2O[C@H]3[C@@H](OC[C@H](O)[C@@H]3O)OC(=O)[C@]34CCC(C)(C)C[C@H]3C3=CC[C@@H]5[C@@]6(C)C[C@H](O)[C@H](O[C@@H]7O[C@H](CO)[C@@H](O)[C@H](O)[C@H]7O[C@@H]7O[C@H](COC(=O)C[C@](C)(O)CC(=O)O[C@@H]1[C@@H](O[C@@H]1OC[C@@H](O)[C@H](O)[C@H]1O)[C@H]2O)[C@@H](O)[C@H](O)[C@H]7O)[C@@](C)(CO)[C@@H]6CC[C@@]5(C)[C@]3(C)C[C@H]4O , reported LD50: 15

* * *

# testDescription: MRT (0 to infinity) in Sprague-Dawley rat at 50 mg/kg, po by HPLC-DAD-IT-TOF-MS analysis
# Assay type: ADME, organism-based
# setupConditions: in vivo
measuredAttribute: MRT inf (h)
Expressed in h, but write only the number.

Reported MRT inf for C[C@@H]1O[C@H]2O[C@H]3[C@@H](OC[C@H](O)[C@@H]3O)OC(=O)[C@]34CCC(C)(C)C[C@H]3C3=CC[C@@H]5[C@@]6(C)C[C@H](O)[C@H](O[C@@H]7O[C@H](CO)[C@@H](O)[C@H](O)[C@H]7O[C@@H]7OC[C@H](OC(=O)C[C@](C)(O)CC(=O)O[C@@H]1[C@@H](O[C@@H]1OC[C@@H](O)[C@H](O)[C@H]1O)[C@H]2O)[C@H](O)[C@H]7O)[C@@](C)(CO)[C@@H]6CC[C@@]5(C)[C@]3(C)CC4 was 9.16
